- protocolText: Selectivity ratio of IC50 for rat L6 cells to IC50 for Leishmania donovani MHOM/ET/67/L82
- Format: ADME, cell-based
- protocolConditions: L6 cells, read-out: Ratio IC50
assayMetric: selectivity ratio

> print(dat)
                                        smi  qual  measured
1  CCCCN1C=CC=c2o/c(=C/C=c3\s/c(=C\c4sc5ccccc5[n+]4CC)n(CCC)c3=O)nc21     =        99
2  CCn1c(=O)/c(=C/N=c2\sc(C)cn2C)s/c1=C\c1sc2ccc(F)cc2[n+]1C     =        88
3  CCn1c(=O)/c(=C/C=c2\nc3c(o2)=CC=CN3C)s/c1=C\c1sc2ccc(F)cc2[n+]1C     =        27
4  CN1/C(=C/C=c2\s/c(=C\c3sc4ccc(F)cc4[n+]3C)n(CCO)c2=O)Sc2ccccc21     >        15
5  CCN1C(=O)/C(=C/C=C2\Sc3ccccc3N2C)S/C1=N\c1sc2ccccc2[n+]1C     =      2990

Data origin: ChEMBL document CHEMBL1156742
